tested on: UACC-257 melanoma; assay: NCI tumour cell line growth inhibition, 48 h; in the data active = GI50 below about 0.43 µM; inactive = the rest
Hello, when you answer, please use one of the following outcomes: True for active, False for inactive

Worked cases, answers included:
What outcome does the record of this test show for Cc1[nH]ccc2cc3nc4ccccc4c3cc12 ?
False

Ok, now CCN1CCN(c2cc(C)nc(NCc3cc(Nc4ccnc5cc(Cl)ccc45)ccc3F)n2)CC1
False

Ok, now COc1ccc(-c2cc3nccn3c(Nc3ncccc3C(N)=O)n2)cc1OC
False

Ok, now CCCCc1oc2ccccc2c1C(=O)c1cc(I)c(OCCN(CC)CC)c(I)c1
False

Ok, now CC1CCC(C#N)(NOC2=NCCN2)CC1 (stereo not given)
False

***
What outcome does the record of this test show for CCOC(=O)c1cn2ncnc(Oc3ccc(NC(=O)NCCN(CC)CC)c(Cl)c3)c2c1C ?
False

Ok, now CO[C@H]1/C=C/C[C@H](C)[C@@H](C)S(=O)(=O)NC(=O)c2ccc3c(c2)N(C[C@@H]2CC[C@H]21)C[C@@]1(CCCc2cc(Cl)ccc21)CO3
False

Ok, now COc1cc2c(cc1-c1c(C)noc1C)ncc1[nH]c(=O)n([C@H](C)c3ccccn3)c12
True

Ok, now CC(=O)[CH-]C(=O)c1ccccc1.CC(=O)[CH-]C(=O)c1ccccc1.CC12CC3(C)CC(C)(C1)CC([O-])(C2)C3.CC[O-].[Ti+4]
False

Ok, now COc1cc(/C=N/O)nc(-c2ccccn2)c1
False
